# System: T-47D breast
# Method: NCI-60 one-dose screen, 48 h (100 = growth as untreated, 0 = no growth, -100 = all killed)
# Test settings: 10 µM unless noted
About 83,000 compounds went through this panel and 20% of them were active in at least one assay; those are over-represented in the sample as a whole.
Listed next: entries and their corresponding growth.
Field format: number, assumed %, no unit text.

Solved cases (2 shown):
Compound	growth (%)
O=CN1N=C(c2ccccc2)CC1c1sc(N(CCCl)CCCl)nc1Cl (configuration not stated)	83
CC(=O)O[C@H]1CCC2C3CCC4=C/C(=N/O)CCC4(C)C3CCC21C (some centres not stated)	95.6

Please turn your attention to the following entry.
Which growth is listed for `Nc1nc(N)c(-c2ccc(Cl)c(Cl)c2)c(/C=C/c2ccc(S(=O)(=O)F)cc2)n1` ?
96.1
